# Assay remarks: yeast display, Sf9 membrane polyspecificity reagent, FACS + sequencing; frameworks hold sequencing errors
Measure: polyreactivity (PSR sort gate)

Examples with their reported polyreactivity (PSR sort gate) follow.
Residue sequence	polyreactivity (PSR sort gate)
QVQLVESGGGLVQAGGSLRLSCAASGRTIPTYVMGWYRQAPGKERELVASIRSGGRTKYADSVKGRFTISRDNAKNTVYLQMNSLKPEDTAVYYCAADRRAYYYSFDYWGQGTQVTVSS	low polyreactivity
QVQLVESGGGLVQAGGSLRLSCAASGSIFAKYAMGWYRQAPGKERELVAAITSSGDSTNYADSVKGRFTISRDNAKNTVYLQMNSLKPEDTAVYYCAADDQYGYVYYAFWGYDYWGQGTQVTVSS	low polyreactivity
QVQLVESGGGLVQAGGSLRLSCAASGRTFYRNAMGWYRQAPGKERELVARISRNGGTTYYADSVKGRFTISRDNAKNTVYLQMNSLKPEDTAVYYCAAPIYDGARGDYWGQGTQVTVSS	high polyreactivity
QVQLVESGGGLVQAGGSLRLSCAASGSTFFLYAMGWYRQAPGKERELVAAITYTDGDTYYADSVKGRFTISRDIAKKTVYLQMNSLKPEDTAVYYCAADSWVQFDYWGQGTQVSVSS	low polyreactivity
QVQLVESGGGLVQAGGSLRLSCAASGITFVKNAMGWYRQAPGKERELVARIRIGGSTSYADSVKGRFTISRDNAKNTVYLQRNSLKPEDNAVYYCARYAGRLSYRYEYWGQGTQVTVSS	high polyreactivity

The sequence listed as QVQLVESGGGLVQAGGSLRLSCAASGSTFIGNAMGWYRQAPGKERELVAAISRTGGSTYADSVKGRFTISRDNAKNTVYLQMNSLKPEDTAVYYCAAKYYYIYYYWGQGTQVTVSS shows polyreactivity (PSR sort gate) equal to high polyreactivity

For record QVQLVESWGGLVQAGGSLRLSCAASGSTFAVNAMGCYRQAPGKERELVDAITVSGGSTDYAYSVKRPFTISRDNAKYSVYLQLNRLKPEDTGVYYCADVRMKYYIYGGYDYWGQGTQVNVSS the listed polyreactivity (PSR sort gate) is low polyreactivity

Just so you know, measured polyreactivity (PSR sort gate) for QVPLVESGGGLVQAGGRLRISCAASGITCTFYSMGWYREAPGKESELVAAISRRGGSTYYADSVKGRFTISRDNEKNTVYLHMNSLKPEDTAVYYCAARGYRPMDYWGQGTQVTVSS came out at high polyreactivity

The measured polyreactivity (PSR sort gate) associated with QVQLVESGGGLVQAGASLRLSCAASGRIFRNYAMGWYRQAPGKERELVAAISSSGGSTYYADSVKGRFTISRDIAKNTVYFQMNSLKPEDTAVYYCAAVARVRGRGDYWGQGSQVTVSS reads high polyreactivity

# polyreactivity (PSR sort gate) of QVQLVDSGGGLVQAGGSLSLSCAASGSTFTDYDMGWYRQAPGKERELVAAITSGGSTNYADSVKGRFTISRDNAKKTVYLQMNSLNPEATAVYYCAAADADRKYDYWGQGTQVTVSS = low polyreactivity

Consider QVQLVESGGGLVQAGGSLRLSCAASGSIIDANAMGWYRQAPGKERELVAAITSGDSTYYADSVKGRFTISRDNAKNTVYLQMNSLKPEDTAVYYCAADPVWHYYRMDYWGQGTQVTVSS . Its measured polyreactivity (PSR sort gate) is low polyreactivity
